This collection of values is drawn from patent US6706763B1.

Items are presented alongside their recorded melting point.

Examples from the recorded data:
{"columns": ["compound", "endpoint_result"],
 "data": [
  ["COc1ccc(CC(S)C(N)=O)cc1C(=O)NCc1ccc(C(F)(F)F)cc1 (stereo not drawn) [Example 6]", "159 to 161 °C"],
  ["COc1ccc(CC(C(=O)O)S(C)(=O)=O)cc1C(=O)NCc1ccc(C(F)(F)F)cc1 (stereo not drawn) [Example 9]", "158 to 159 °C"]
]}

// field: melting point; key: COc1ccc(CC(SC)C(N)=O)cc1C(=O)NCc1ccc(C(F)(F)F)cc1 (stereo not drawn) [Example 3] ; value = 152.5 to 153.5 °C
